# System: BDF1 mice, P388 leukemia ip, median survival T/C
# EXPERIMENTAL_PROTOCOL: NCI In Vivo Anticancer Drug Screen. Data for tumor model P388 Leukemia (intraperitoneal) in B6D2F1 (BDF1) mice
# SETUP_CONDITIONS: endpoint: median survival time; dose: 100.0 mg/kg/injection; schedule: Q01DX001 (ip); vehicle: saline sonified; higher = longer survival
Inconclusive results and toxic doses are left out.
MEASUREMENT_TYPE: T/C

Task item: Can you look up the measured T/C of "NC(=S)NNC(=O)/C=C/c1ccccc1" for me?
Reply: 104 % of control

Task item: Now the compound "CCCCCCCCCCCCCSCCCCCCCCCCCCSCCCCCCCCCCCC"
Reply: 86 % of control

Task item: Proceed to CCOC(=O)C(C1=NC(C)(C)CC(C)O1)C(C[N+](=O)[O-])c1ccccc1 (stereo unspecified)
Reply: 100 % of control

Task item: And the next one, "CCCCCCCCCCCCCCCCCOc1ccc2ccccc2c1" ?
Reply: 90 % of control

Task item: Next entry: "CC(=O)C(=O)N1Cc2cc3ccccc3nc2C1"
Reply: 100 % of control

Task item: Then what about the compound "CC1(C)CNC2OC1NCC2(C)C" ?
Reply: 100 % of control
